- protocolText: gradient 5% acetonitrile 3 min, to 50% in 2 min, to 85% in 15 min, held 3 min, 100 µL/min
- testConditions: column: Zorbax Extend-C18 2.1 x 50 mm; eluents: water / acetonitrile, 0.1% formic acid
Overview of reported RP-LC retention time across a group of compounds:

> print(dat)
                                   compound  reported
1    Clc1ccc(-c2ccc(CNc3ncn[nH]3)o2)c(Cl)c1     734 s
2              Nc1c(C(=O)NCC2CC2)nsc1C(=O)O     770 s
3  CCOC(=O)C1CCCN(Cc2nc3nc(C)cc(N4CCOCC4)n3n2)C1 (stereo unspecified)     576 s

Q) Read the entry `CC1CCN(c2cncnc2-n2cc(NC(=O)NC3CCCCC3)cn2)CC1` and write its reported RP-LC retention time.
A) 744 s

Q) Look up and state reported RP-LC retention time for `CS(=O)(=O)Nc1ccc(-c2noc(-c3cncc(Br)c3)n2)cc1`
A) 877 s

Q) Dear colleague, please send me the reported RP-LC retention time for `CC(C)(C)c1csc(-c2csc(S(=O)(=O)Nc3ccc(F)cc3)c2)n1` when you can.
A) 1220 s

Q) Please supply the value of reported RP-LC retention time for the item Cc1ccc2c(c1)N(S(C)(=O)=O)CC(C)O2 (stereo unspecified)
A) 620 s

Q) Answer with the recorded RP-LC retention time for the compound listed here: `COc1ccc2c(c1)c(CN1CCOCCNC(=O)CC1)cn2C`
A) 598 s

Q) Output RP-LC retention time of `COc1cccc(CC(=O)Nc2nnc(SCc3nnc(-c4ccccc4C)o3)s2)c1`
A) 922 s

Q) Item CC(C)CCNC(=O)N1CCCC(C)(C(=O)NCc2ccccc2)C1 (stereo unspecified) : provide RP-LC retention time
A) 834 s

Q) // Input: `Cc1ccc(CNC(=O)N2CC(N(CC3CC3)C3CCOCC3)C2)cc1` . Output its RP-LC retention time only.
A) 582 s

====

- protocolText: gradient 5% acetonitrile 3 min, to 50% in 2 min, to 85% in 15 min, held 3 min, 100 µL/min
- testConditions: column: Zorbax Extend-C18 2.1 x 50 mm; eluents: water / acetonitrile, 0.1% formic acid
Catalogue of compounds with associated RP-LC retention time
All answers are understood in s, so give the number only.

Here are 4 compounds together with their reported answers.
> print(dat)
                                   compound  reported
1  O=C(NCC1CC1)c1ccc2c(c1)nc1n2CCN(C2CCCCC2)C1=O       706
2          Nc1ncnc(NCc2ccco2)c1[N+](=O)[O-]       643
3  CCCNC(=O)N1CCCC(C)(C(=O)NCc2ccc(C)cc2)C1 (stereo not given)       799
4  CCC1CN(C(=O)N2CCC(C(=O)NCCCN3CCCCCC3)CC2)c2ccccc2O1 (stereo not given)       663

Now turn to the next compound.
Q) Answer with the recorded RP-LC retention time of CN(C)c1nc2ncn3c(=O)n(CC(=O)NC4CCc5ccccc54)nc3c2s1 (stereo not given) only.
A) 864

====

- protocolText: gradient 5% acetonitrile 3 min, to 50% in 2 min, to 85% in 15 min, held 3 min, 100 µL/min
- testConditions: column: Zorbax Extend-C18 2.1 x 50 mm; eluents: water / acetonitrile, 0.1% formic acid
Label Not met if RP-LC retention time falls below 900 s; label Met in every other case.

# example entries with known answers
> print(dat)
                                   compound    label
1     CCOc1ccc(/C=C/c2nc3ccccc3n(C)c2=O)cc1      Met
2  CCc1ccc(S(=O)(=O)N2CCn3c(nnc3C3CCN(C(C)C)C3)C2)cc1 (stereo not given)  Not met
3  CCn1nc(C)c(S(=O)(=O)N2CCN(C(=O)C(C)Oc3cccc(Cl)c3)CC2)c1C (stereo not given)  Not met
4   CCCn1cc(S(=O)(=O)Nc2ccc(C)cc2)c2cccnc21      Met
5  CCCc1noc(-c2cccnc2N2CCCN(Cc3ccc(F)cc3)CC2)n1  Not met
6  Cc1cc(NC(=O)C(=O)NCCc2ccc(S(N)(=O)=O)cc2)no1  Not met
7  O=C(c1ccc2c(c1)OCO2)N1CCCCC1c1nncn1CC1CC1 (stereo not given)  Not met
8  COc1ccc(-c2ncc3c(n2)CCN(S(=O)(=O)Cc2ccc(C)cc2)C3)cc1      Met

Q) Tell me whether RP-LC retention time is at least 900 s here: `Cc1cc(F)ccc1NC(=O)c1cc(C2CC2)on1`
A) Met

Q) Does `O=C(NCc1ccc2c(c1)OCO2)c1ccc2c(c1)N(CC(=O)N1CCCC1)C(=O)CO2` have a reported RP-LC retention time of at least 900 s?
A) Not met

Q) Hi team, for `COc1ccc(CN2C[C@@H]3C(=O)N(Cc4ccc5c(c4)OCO5)C(=O)[C@@H]3C2)cc1` , is the recorded RP-LC retention time at or above 900 s?
A) Not met

Q) Tell me whether RP-LC retention time is at least 900 s here: `CCCNC(=O)c1cn(-c2cc(-c3nc(C(C)C)no3)ccn2)cn1`
A) Not met
